Provide the recorded pEC50 for the entries that follow.
Target: ABCD2 WT (Homo sapiens)
Sequence (Q9UBJ2 1-740): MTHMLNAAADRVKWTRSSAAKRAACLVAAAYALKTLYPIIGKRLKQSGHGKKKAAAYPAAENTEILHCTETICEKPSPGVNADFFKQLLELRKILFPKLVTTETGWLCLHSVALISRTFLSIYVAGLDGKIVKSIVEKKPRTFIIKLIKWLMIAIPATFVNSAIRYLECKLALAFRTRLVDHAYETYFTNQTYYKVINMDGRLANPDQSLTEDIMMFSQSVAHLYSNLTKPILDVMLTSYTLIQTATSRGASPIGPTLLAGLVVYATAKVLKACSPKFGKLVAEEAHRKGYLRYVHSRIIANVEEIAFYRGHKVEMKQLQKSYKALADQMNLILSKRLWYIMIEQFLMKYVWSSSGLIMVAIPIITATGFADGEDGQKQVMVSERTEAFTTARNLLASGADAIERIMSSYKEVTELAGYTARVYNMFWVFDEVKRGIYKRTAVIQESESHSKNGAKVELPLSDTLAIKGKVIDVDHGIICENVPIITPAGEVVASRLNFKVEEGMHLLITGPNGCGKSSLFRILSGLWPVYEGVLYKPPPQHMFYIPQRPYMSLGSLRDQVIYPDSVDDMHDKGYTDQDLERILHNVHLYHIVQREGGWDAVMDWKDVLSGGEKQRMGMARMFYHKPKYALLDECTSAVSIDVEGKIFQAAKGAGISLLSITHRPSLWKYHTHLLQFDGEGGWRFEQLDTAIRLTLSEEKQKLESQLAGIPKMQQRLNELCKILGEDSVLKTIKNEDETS
Assay: D2 correction dose-response assay: ABCD2 WT HiBit protein expression
Details: HEK-293/ABCD2 WT cells, 24 hours treatment, HiBit luminescence; class combines EC50 and Mean MaxAct (fold); read-out: ABCD2 WT EC50, Emax
pEC50: −log10 of the molar value.

                                   compound  measure_name  result
0  Cc1cc(C)c(Oc2nc(-c3cncc(N4CC(F)C4)c3)ccc2NS(C)(=O)=O)c(C)n1         pEC50  > 6.00

Required: pEC50, one value per compound below.
1. Cc1cc(C2CC2)nc(C)c1Oc1nc(-c2ccnc(C#N)c2)ccc1NS(C)(=O)=O
2. Cc1cc(C)c(Oc2nc(N3CCN(C(=O)C4CC4)CC3)ccc2NS(C)(=O)=O)c(C)c1
3. Cc1cc(C)c(Oc2nc(-c3cccc(Cl)c3)ccc2S(=O)(=O)NC2CCOC2)c(C)c1 (centres unmarked)
4. Cc1cc(C)c(Oc2nc(-c3cncc(Cl)c3)ncc2NS(C)(=O)=O)c(C)c1
5. Cc1cc(C)c(Oc2cc(-c3cncc(Cl)c3)ncc2NS(C)(=O)=O)c(C)c1

Key:
1. < 4.60
2. 5.00 to 6.00
3. 5.00 to 6.00
4. > 6.00
5. 5.00 to 6.00

Required: pEC50, one value per compound below.
1. Cc1cc(C)c(Oc2nc(-c3cncc(C#N)c3)ccc2S(N)(=O)=O)c(C)n1
2. Cc1nc(C(F)F)nc(C2CC2)c1Oc1nc(-c2cncc(C#N)c2)ccc1S(=O)(=O)NC1CC1

Key:
["4.60 to 5.00", "< 4.60"]

---

molecular target: ABCA4 P1380L (Homo sapiens, UniProt P78363, P1380L); construct: expressed in transfected cells; test: A4 correction dose-response assay: ABCA4 P1380L HiBit protein expression; type: cell-based; conditions: HEK-293 cells stably expressing HiBit-tagged ABCA4 P1380L; 24 h treatment; top concentration 30 μM; read-out: ABCA4 P1380L EC50, Emax
Sequence (P78363 whole entry P1380L): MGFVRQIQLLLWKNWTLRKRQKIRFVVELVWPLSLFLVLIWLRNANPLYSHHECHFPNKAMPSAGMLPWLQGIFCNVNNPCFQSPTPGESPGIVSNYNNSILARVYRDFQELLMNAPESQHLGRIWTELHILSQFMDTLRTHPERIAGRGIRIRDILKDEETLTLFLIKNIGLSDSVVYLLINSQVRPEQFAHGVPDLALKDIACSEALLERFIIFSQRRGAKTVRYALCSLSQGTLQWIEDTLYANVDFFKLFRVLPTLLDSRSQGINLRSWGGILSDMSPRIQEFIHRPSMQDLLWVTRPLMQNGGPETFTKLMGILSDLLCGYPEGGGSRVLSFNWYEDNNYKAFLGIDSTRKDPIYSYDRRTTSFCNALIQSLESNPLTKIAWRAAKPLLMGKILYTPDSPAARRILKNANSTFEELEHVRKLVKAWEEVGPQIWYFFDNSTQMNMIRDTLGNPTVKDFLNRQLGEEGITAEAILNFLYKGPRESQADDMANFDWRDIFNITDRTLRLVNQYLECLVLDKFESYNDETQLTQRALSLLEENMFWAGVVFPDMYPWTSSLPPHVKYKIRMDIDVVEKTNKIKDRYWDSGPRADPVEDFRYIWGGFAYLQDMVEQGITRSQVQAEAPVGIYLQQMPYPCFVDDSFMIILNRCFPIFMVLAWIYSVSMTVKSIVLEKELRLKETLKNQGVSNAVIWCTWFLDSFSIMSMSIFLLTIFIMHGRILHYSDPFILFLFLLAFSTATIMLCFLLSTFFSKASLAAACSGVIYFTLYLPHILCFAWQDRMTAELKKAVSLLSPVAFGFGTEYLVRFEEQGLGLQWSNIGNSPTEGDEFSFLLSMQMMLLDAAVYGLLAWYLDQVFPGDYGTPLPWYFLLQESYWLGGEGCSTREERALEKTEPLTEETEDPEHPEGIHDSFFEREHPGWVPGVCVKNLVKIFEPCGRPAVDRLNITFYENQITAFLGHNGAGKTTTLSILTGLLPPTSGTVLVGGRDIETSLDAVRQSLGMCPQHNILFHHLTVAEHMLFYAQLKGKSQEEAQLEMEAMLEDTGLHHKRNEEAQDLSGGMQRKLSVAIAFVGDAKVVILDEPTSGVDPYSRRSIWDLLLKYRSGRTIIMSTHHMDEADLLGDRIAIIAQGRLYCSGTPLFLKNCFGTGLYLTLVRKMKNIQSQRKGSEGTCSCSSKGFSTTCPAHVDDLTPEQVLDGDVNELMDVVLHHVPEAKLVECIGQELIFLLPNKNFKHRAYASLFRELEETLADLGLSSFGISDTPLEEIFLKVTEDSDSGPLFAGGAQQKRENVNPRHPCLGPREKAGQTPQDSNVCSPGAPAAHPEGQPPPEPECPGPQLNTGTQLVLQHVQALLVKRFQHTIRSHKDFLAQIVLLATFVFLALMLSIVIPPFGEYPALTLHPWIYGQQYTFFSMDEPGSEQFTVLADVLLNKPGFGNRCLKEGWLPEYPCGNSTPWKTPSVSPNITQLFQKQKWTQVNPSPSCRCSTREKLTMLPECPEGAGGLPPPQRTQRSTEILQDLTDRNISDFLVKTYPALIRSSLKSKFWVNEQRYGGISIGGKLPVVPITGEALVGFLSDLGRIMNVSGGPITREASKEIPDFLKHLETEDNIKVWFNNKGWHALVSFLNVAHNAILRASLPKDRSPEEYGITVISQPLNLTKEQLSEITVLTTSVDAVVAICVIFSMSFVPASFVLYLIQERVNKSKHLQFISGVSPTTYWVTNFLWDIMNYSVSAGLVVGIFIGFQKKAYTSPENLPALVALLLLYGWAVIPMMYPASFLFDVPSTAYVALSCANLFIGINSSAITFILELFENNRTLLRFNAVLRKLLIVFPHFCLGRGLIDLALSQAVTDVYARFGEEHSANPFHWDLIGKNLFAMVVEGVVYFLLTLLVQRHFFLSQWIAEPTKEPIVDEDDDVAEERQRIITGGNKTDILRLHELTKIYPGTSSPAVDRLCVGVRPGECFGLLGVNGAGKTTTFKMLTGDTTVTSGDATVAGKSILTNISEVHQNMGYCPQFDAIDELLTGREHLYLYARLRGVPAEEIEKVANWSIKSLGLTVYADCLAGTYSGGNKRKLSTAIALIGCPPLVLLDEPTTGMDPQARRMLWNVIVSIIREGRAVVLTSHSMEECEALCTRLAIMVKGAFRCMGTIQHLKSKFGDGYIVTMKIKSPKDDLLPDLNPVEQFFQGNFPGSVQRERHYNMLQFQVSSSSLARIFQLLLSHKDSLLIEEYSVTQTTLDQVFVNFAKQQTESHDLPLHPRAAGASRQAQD
pEC50: −log10 of the molar value.
Measure Name: pEC50

>>> df
                                   molecule                         system_under_test  measure_name        result
0  Cc1cc(C2CC2)nc(C2CC2)c1Oc1nc(-c2cncc(C#N)c2)ccc1S(=N)(=O)C1CC1 (stereo not drawn) [Compound I-317]  ABCA4 P1380L (Homo sapiens, UniProt P78363, P1380L)         pEC50        < 4.60
1  Cc1cc(C)c(Oc2nc(-c3cncc(Cl)c3)ccc2N(C)S(=O)(=O)c2cnn(C)c2)c(C)c1 [Compound I-70]  ABCA4 P1380L (Homo sapiens, UniProt P78363, P1380L)         pEC50        < 4.60
2  Cc1cc(C)c(Oc2nc(N3CC4CC3CN4C(=O)C3CC3)ccc2NS(C)(=O)=O)c(C)c1 (single isomer, unassigned) [Compound I-19]  ABCA4 P1380L (Homo sapiens, UniProt P78363, P1380L)         pEC50        < 4.60
3  Cc1cc(C)c(Oc2nc(-c3cncc(C#N)c3)ccc2S(N)(=O)=O)c(C)c1 [Compound I-280]  ABCA4 P1380L (Homo sapiens, UniProt P78363, P1380L)         pEC50        > 6.00
4  CNS(=O)(=O)c1ccc(-c2cncc(C#N)c2)nc1Oc1c(C)cc(C(F)(F)F)nc1C [Compound I-168]  ABCA4 P1380L (Homo sapiens, UniProt P78363, P1380L)         pEC50  5.00 to 6.00
5  Cc1cc(C2CC2)c(Oc2nc(-c3cncc(C#N)c3)ccc2NS(C)(=O)=O)c(C)n1 [Compound I-171]  ABCA4 P1380L (Homo sapiens, UniProt P78363, P1380L)         pEC50        > 6.00
6  Cc1cc(C)c(Oc2nc(-c3cncc(C#N)c3)ccc2NS(=O)(=O)C2COC2)c(C)n1 [Compound I-228]  ABCA4 P1380L (Homo sapiens, UniProt P78363, P1380L)         pEC50        > 6.00
7  Cc1cc(C)c(Oc2nc(-c3ccc(C#N)nc3C)ccc2NS(C)(=O)=O)c(C)n1 [Compound I-269]  ABCA4 P1380L (Homo sapiens, UniProt P78363, P1380L)         pEC50  5.00 to 6.00
8  Cc1cc(C)c(Oc2nc(N3CCN(C(=O)C4COC4)CC3)ccc2NS(C)(=O)=O)c(C)c1 [Compound I-23]  ABCA4 P1380L (Homo sapiens, UniProt P78363, P1380L)         pEC50  4.60 to 5.00
9  Cc1cc(C(F)F)nc(C)c1Oc1nc(-c2cncc(C3COC3)c2)ccc1NS(C)(=O)=O [Compound I-197]  ABCA4 P1380L (Homo sapiens, UniProt P78363, P1380L)         pEC50  5.00 to 6.00

Required: pEC50, one value per molecule below.
1. Cc1cc(C)c(Oc2nc(-c3cncc(Cl)c3)ccc2NS(=O)(=O)Cc2ccccc2)c(C)c1 [Compound I-65]
2. Cc1cc(C(F)(F)F)nc(C2CC2)c1Oc1nc(-c2cncc(C#N)c2)ccc1S(=O)(=O)NC1COC1 [Compound I-305]

Key:
1: < 4.60; 2: < 4.60
